The measured values listed here are drawn from patent US20130053337A1.

test system: MRSE CAN-ICU 61589; assay: MIC, broth macrodilution (CLSI); format: cell-based, methicillin-resistant Staphylococcus epidermidis
Answer each item with its documented MIC.
One number for each entry, in µg/mL.

A selection of reference data follows.
molecule: CCCCCCCCCCCCCCCC(=O)NCC1OC(OC2C(N)CC(N)C(OC3OC(CN)C(O)C(O)C3O)C2O)C(O)C(N)C1O.O=C(O)C(F)(F)F.O=C(O)C(F)(F)F.O=C(O)C(F)(F)F.O=C(O)C(F)(F)F (stereo not shown) [Compound 15]
MIC [µg/mL]: 2
//
molecule: CCCCCC(=O)NCC1OC(OC2C(O)C(NC(=N)N)CC(NC(=N)N)C2OC2OC(CNC(=N)N)C(O)C(O)C2NC(=N)N)C(O)C1OC1OC(CNC(=N)N)C(O)C(O)C1NC(=N)N.O=C(O)C(F)(F)F.O=C(O)C(F)(F)F.O=C(O)C(F)(F)F.O=C(O)C(F)(F)F.O=C(O)C(F)(F)F.O=C(O)C(F)(F)F (stereo not shown) [Compound 8]
MIC [µg/mL]: 64
//
molecule: CCCCC/C=C\C/C=C\CCCCCCCC(=O)NCC1OC(OC2C(O)C(NC(=N)N)CC(NC(=N)N)C2OC2OC(CNC(=N)N)C(O)C(O)C2NC(=N)N)C(O)C1OC1OC(CNC(=N)N)C(O)C(O)C1NC(=N)N.O=C(O)C(F)(F)F.O=C(O)C(F)(F)F.O=C(O)C(F)(F)F.O=C(O)C(F)(F)F.O=C(O)C(F)(F)F.O=C(O)C(F)(F)F (stereo not shown) [Compound 12]
MIC [µg/mL]: 8

Working through the 4 molecules below one at a time, give MIC for each.
1. NC[C@@H]1O[C@H](O[C@H]2[C@@H](O)[C@H](O[C@@H]3[C@@H](O)[C@H](N)C[C@H](N)[C@H]3O[C@H]3O[C@H](CN)[C@@H](O)[C@H](O)[C@H]3N)O[C@@H]2CNC(=O)CCCc2ccc3ccc4cccc5ccc2c3c45)[C@H](N)[C@@H](O)[C@@H]1O.O=C(O)C(F)(F)F.O=C(O)C(F)(F)F.O=C(O)C(F)(F)F.O=C(O)C(F)(F)F.O=C(O)C(F)(F)F.O=C(O)C(F)(F)F [Compound 6]
2. NC[C@@H]1O[C@H](O[C@H]2[C@@H](O)[C@H](O[C@@H]3[C@@H](O)[C@H](N)C[C@H](N)[C@H]3O[C@H]3O[C@H](CN)[C@@H](O)[C@H](O)[C@H]3N)O[C@@H]2CO)[C@H](N)[C@@H](O)[C@@H]1O [Neomycin B, reference compound]
3. CCCCCCCCCCCCCCCCCCCC(=O)NC[C@H]1O[C@@H](O[C@@H]2[C@@H](O)[C@H](N)C[C@H](N)[C@H]2O[C@H]2O[C@H](CN)[C@@H](O)[C@H](O)[C@H]2N)[C@H](O)[C@@H]1O[C@H]1O[C@@H](CN)[C@@H](O)[C@H](O)[C@H]1N.O=C(O)C(F)(F)F.O=C(O)C(F)(F)F.O=C(O)C(F)(F)F.O=C(O)C(F)(F)F.O=C(O)C(F)(F)F.O=C(O)C(F)(F)F [Compound 4]
4. CCCCCCCCCCCCCCCC(=O)NC[C@H]1O[C@@H](O[C@@H]2[C@@H](O)[C@H](N)C[C@H](N)[C@H]2O[C@H]2O[C@H](CN)[C@@H](O)[C@H](O)[C@H]2N)[C@H](O)[C@@H]1O[C@H]1O[C@@H](CN)[C@@H](O)[C@H](O)[C@H]1N.O=C(O)C(F)(F)F.O=C(O)C(F)(F)F.O=C(O)C(F)(F)F.O=C(O)C(F)(F)F.O=C(O)C(F)(F)F.O=C(O)C(F)(F)F [Compound 3]

Output line:
1. 64
2. 0.5
3. 4
4. 2
